- test: aqueous kinetic solubility
- test.context: aqueous kinetic solubility
Kindly supply the reported Sol. values for the records listed here.
Numbers only, in µg/mL.

Some entries whose results are on file:
>  <compound>
CC1=C(C(=O)Nc2nncs2)C(c2n[nH]cc2Cl)N=C(Nc2nc3ccccc3o2)N1 (stereo not shown) [Compound 254]

>  <Sol. [µg/mL]>
34.6

$$$$
>  <compound>
CC1=C(C(=O)NCc2cncn2C)C(c2ccccc2Cl)N=C(Nc2nc3ccccc3o2)N1 (stereo not shown) [Compound 230]

>  <Sol. [µg/mL]>
42.0

$$$$

Ask: What does the data say about its Sol.? Entry: CCn1cc(CNC(=O)C2=C(C)NC(Nc3nc4ccc(F)c(N)c4o3)=N[C@H]2c2ccc(C)cc2Cl)cn1 [Compound 135]
Result: 2.05

* * *

- experimental.system: recombinant human GALK1 (Homo sapiens, UniProt P51570)
- Sequence (P51570 whole entry): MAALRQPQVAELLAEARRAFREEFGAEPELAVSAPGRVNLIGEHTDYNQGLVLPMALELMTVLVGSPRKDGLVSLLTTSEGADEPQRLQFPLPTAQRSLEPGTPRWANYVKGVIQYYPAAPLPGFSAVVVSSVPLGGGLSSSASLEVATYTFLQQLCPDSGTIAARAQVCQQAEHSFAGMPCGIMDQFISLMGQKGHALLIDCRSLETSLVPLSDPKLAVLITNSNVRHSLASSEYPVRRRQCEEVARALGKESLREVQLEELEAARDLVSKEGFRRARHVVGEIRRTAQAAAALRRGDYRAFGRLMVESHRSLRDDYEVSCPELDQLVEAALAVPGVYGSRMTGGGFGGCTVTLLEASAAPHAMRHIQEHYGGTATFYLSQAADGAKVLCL
- test: hGALK1 biochemical activity assay (Kinase-Glo Plus, ATP depletion)
- test.context: recombinant human GALK1, Kinase-Glo Plus ATP depletion; read-out: hGALK
One threshold, 7 µM, splits the recorded IC50 values: lower ones are fulfilled, equal or higher ones are not fulfilled.

Reference set (5 entries):
>  <molecule>
CC1=C(C(=O)Nc2ccc(-c3nnn[nH]3)cc2)C(c2ccccc2Cl)N=C(Nc2nc3ccccc3o2)N1 (centres unmarked)

>  <cat>
fulfilled

$$$$
>  <molecule>
CC1=C(C(=O)Nc2cccc(-c3nnn[nH]3)c2)C(c2ccccc2Cl)N=C(Nc2nc3ccccc3o2)N1 (centres unmarked)

>  <cat>
not fulfilled

$$$$
>  <molecule>
CC1=C(C(=O)N2CCOCC2)C(c2ccccc2Cl)N=C(Nc2nc3ccccc3o2)N1 (centres unmarked)

>  <cat>
not fulfilled

$$$$
>  <molecule>
CC1=C(C(=O)Nc2cc(C(=O)O)ccn2)C(c2ccc(-n3ccnc3)cc2Cl)N=C(Nc2nc3ccc(F)cc3o2)N1 (centres unmarked)

>  <cat>
fulfilled

$$$$
>  <molecule>
CC1=C(C(=O)Nc2cccc(C(=O)O)n2)C(c2ccccc2Cl)N=C(Nc2nc3ccccc3o2)N1 (centres unmarked)

>  <cat>
fulfilled

$$$$

Ask: Item CC1=C(C(=O)Nc2ccc(CO)cn2)C(c2ccccc2Cl)N=C(Nc2nc3ccc(F)cc3o2)N1 (centres unmarked) : IC50 beneath 7 µM, strictly?
Result: not fulfilled

Ask: Item COC(=O)c1cnc(NC(=O)C2=C(C)NC(Nc3nc4ccccc4o3)=NC2c2ccccc2Cl)s1 (centres unmarked) : IC50 beneath 7 µM, strictly?
Result: fulfilled

Ask: Item CC1=C(C(=O)Nc2cc(C(=O)O)ccn2)C(c2ccccc2Cl)N=C(Nc2nc3cccc(C(F)(F)F)c3o2)N1 (centres unmarked) : IC50 beneath 7 µM, strictly?
Result: not fulfilled

Ask: Item CC1=C(C(=O)Nc2ccc(C(=O)O)nc2)C(c2ccccc2Cl)N=C(Nc2nc3ccccc3o2)N1 (centres unmarked) : IC50 beneath 7 µM, strictly?
Result: fulfilled

Ask: Item CCn1cc(CNC(=O)C2=C(C)NC(Nc3nc4ccc(F)cc4o3)=NC2c2ccc(C)cc2Cl)cn1 (centres unmarked) : IC50 beneath 7 µM, strictly?
Result: fulfilled

Ask: Item CC1=C(C(=O)Nc2ccc(C(N)=O)cc2)C(c2ccccc2Cl)N=C(Nc2nc3ccccc3o2)N1 (centres unmarked) : IC50 beneath 7 µM, strictly?
Result: fulfilled

Ask: Item COc1ccc2nc(NC3=NC(c4ccccc4Cl)C(C(=O)Nc4nnc(-c5cccnc5)s4)=C(C)N3)oc2c1 (centres unmarked) : IC50 beneath 7 µM, strictly?
Result: not fulfilled

Ask: Item CC1=C(C(=O)Nc2cc(C(=O)O)ccn2)C(c2ccc(N3CCCC3)cc2Cl)N=C(Nc2nc3ccc(F)cc3o2)N1 (centres unmarked) : IC50 beneath 7 µM, strictly?
Result: fulfilled

Ask: Item CC1=C(C(=O)Nc2cc(C(=O)O)ccn2)C(c2ccccc2Cl)N=C(Nc2nc3cccc([N+](=O)[O-])c3o2)N1 (centres unmarked) : IC50 beneath 7 µM, strictly?
Result: not fulfilled

Ask: Item CC1=C(C(=O)NCc2nc3ccccc3n2C)C(c2ccccc2Cl)N=C(Nc2nc3ccccc3o2)N1 (centres unmarked) : IC50 beneath 7 µM, strictly?
Result: not fulfilled
